What cell viability was measured for each of the following?
System: SEM cells
assayRemarks: cell viability relative to DMSO control; higher = less cytotoxic
testConditions: RPMI 5 mM glucose + 10% dialyzed FBS; 48 h; 0.0211 µM
Entry rule: numbers only, all in %.

q: Fill in the blank: the reported cell viability of Cc1noc(-c2ccc(CSCCC(=O)O)cc2)c1NC(=O)OC(C)c1ccccc1Cl (centres undefined) is ____.
a: 115

q: Consider next the compound NC(=O)OCC(COC(N)=O)c1ccccc1 in the same way.
a: 115

q: Consider next the compound COC1=CC=C2/C3=N/CCN3\C(=N/C2=C1OC)NC(=O)C4=CC=CN=C4 in the same way.
a: 103

q: Consider next the compound CN(C)CCN1C(=O)c2cccc3cc(N)cc(c23)C1=O in the same way.
a: 102

q: Consider next the compound COc1ccc2cc1Oc1ccc(cc1)C[C@H]1c3cc(c(OC)cc3CCN1C)Oc1c(OC)c(OC)cc3c1[C@H](C2)N(C)CC3 in the same way.
a: 125

q: Consider next the compound NC(=O)c1ncn([C@@H]2O[C@H](CO)[C@@H](O)[C@H]2O)c1O in the same way.
a: 128

q: Consider next the compound CC(C)Cc1ccc(C(C)C(=O)O)cc1 (centres undefined) in the same way.
a: 90.9

q: Consider next the compound C=CCc1ccc(O)c(-c2ccc(O)c(CC=C)c2)c1 in the same way.
a: 89.6

q: Consider next the compound COc1cccc2c1CCCC2CCCN1CCN(C2CCCCC2)CC1 (centres undefined) in the same way.
a: 102

q: Consider next the compound NC(=O)NO in the same way.
a: 88.4

q: Consider next the compound O=c1[nH]c(=O)n(C2CCCO2)cc1F (centres undefined) in the same way.
a: 117

q: Consider next the compound C[C@]12CC[C@H]3[C@@H](CCC/4=C/C(=O)CC[C@]34C)[C@@H]1CC[C@@H]2OC(=O)CCC5CCCC5 in the same way.
a: 113

q: Consider next the compound CC(=O)[C@]1(O)Cc2c(O)c3c(c(O)c2[C@@H](O[C@H]2C[C@H](N)[C@H](O)[C@H](C)O2)C1)C(=O)c1ccccc1C3=O in the same way.
a: 125

q: Consider next the compound O=[S+]([O-])(c1cccc2cnccc12)N1CCCNCC1 in the same way.
a: 135

q: Consider next the compound CCCC1OC2C[C@H]3[C@@H]4CCC5=CC(=O)C=C[C@]5(C)[C@H]4C(O)C[C@]3(C)[C@]2(C(=O)CO)O1 (some centres undefined) in the same way.
a: 77.9

q: Consider next the compound CC(C)OC1=CC=C2C(=C1)O\C=C(/C2=O)C3=CC=CC=C3 in the same way.
a: 126

q: Consider next the compound CO/N=C(\C(=O)N[C@@H]1C(=O)N2C(C(=O)OCOC(=O)C(C)(C)C)=C(/C=C\c3scnc3C)CS[C@H]12)c1csc(N)n1 in the same way.
a: 93.7

q: Consider next the compound CNC(=O)[C@H](CC/1=C/N=C\2/C=C\C\C=C12)NC(=O)[C@H](CC(C)C)CC(=O)NO in the same way.
a: 100

q: Consider next the compound OC1=CC2=C(C(=C1)O)C(=O)\C(=C(/O2)C3=CC(=C(O)C=C3)O)O in the same way.
a: 88.3

* * *

System: SEM cells
assayRemarks: AUC of viability dose-response curve (% viability x log10 dose units); higher = less sensitive
testConditions: RPMI 5 mM glucose + 10% FBS; 48 h
metricName: AUC of viability dose-response curve
Output spec: single numeric token, no unit.

q: Fill in the blank: the reported AUC of viability dose-response curve of COc1cc(C(=O)NS(=O)(=O)c2ccccc2C)ccc1Cc1cn(C)c2ccc(NC(=O)OC3CCCC3)cc12 is ____.
a: 338

q: Consider next the compound O=[S+]([O-])(c1cccc2cnccc12)N1CCCNCC1 in the same way.
a: 463

q: Consider next the compound Cc1noc(-c2ccc(CSCCC(=O)O)cc2)c1NC(=O)OC(C)c1ccccc1Cl (centres undefined) in the same way.
a: 433

q: Consider next the compound O=C1NC(=O)/C(=C/c2ccc(-c3ccc(F)cc3O)o2)S1 in the same way.
a: 419

Data origin, for the record: the supplement of paper PMC11451515
